Exercise: state measured inhibition for each of the compounds provided.
- Subject Of Test: Sentrin-specific protease 7 (Homo sapiens)
- Assay Notes: SENP7 protease inhibitors, primary screen, biochemical, luminescence, uHTS (AID 434973);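 also: plate controls were DMSO with enzyme for no effect and no enzyme buffer wells for full effect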
- Test Conditions: recombinant SENP7, Z-RLRGG-aminoluciferin luminescence, 40 min; at 5 µM; active compounds read high
Screen size: about 330,000 compounds; about 4,900 (1.5%) were called active. This excerpt belongs to a sample that is enriched for actives.
Please state the figure in %; there is no need to write the unit.

Exam item: Recorded inhibition for `Cc1ccc(CNC(=O)Cn2cnc3c(NCc4ccccc4)ncnc32)o1` with Sentrin-specific protease 7 (Homo sapiens), please?
Marked response: -4.15

Exam item: Similarly, COc1ccc(S(=O)(=O)N2CCOC2CNC(=O)C(=O)NCc2ccc(F)cc2)cc1 (centres undefined) ?
Marked response: 2.2

Exam item: Can you handle `Cc1ccc(-c2nc3ccccc3[nH]2)cc1N` next?
Marked response: 94.4

Exam item: Would you kindly repeat that for `CSc1ccc(C#N)cc1NC(=O)c1ccc(Cl)cc1` ?
Marked response: 0.394

Exam item: Queued: `CCOC(=O)CSc1nnc(-c2ccc([N+](=O)[O-])cc2)o1`
Marked response: -2.17

Exam item: Consider next the compound `O=C(Nc1ccc(Cl)cc1)c1cc2nc(C3CC3)cc(C(F)(F)F)n2n1` in the same way.
Marked response: 2.83

Exam item: And the next one, `c1ccc2[nH]c(-c3nc4ccccc4[nH]3)nc2c1` ?
Marked response: 99.5

Exam item: Next: O=C(NC1CCCC1)C(c1ccccn1)N(C(=O)c1csnn1)C1CCCC1 (centres undefined)
Marked response: 4.87

Exam item: Proceed to `Cc1ccc2nc(-c3ccc(Br)cc3)cn2c1`
Marked response: 89.3

Exam item: One more compound: `CCCCOc1ccc(-c2nnc(-c3ccco3)o2)cc1`
Marked response: 80.5

Exam item: Could you do the same for `O=C(Nc1cccc(NC(=O)c2cccc(F)c2)c1)c1ccccc1` , please?
Marked response: -10.7

Exam item: One more compound: `O=C(/C=C/c1ccco1)NC(=S)Nc1ccccc1Br`
Marked response: -4.36

Exam item: Note, next up: `CSc1nc(C)nc(C2CC2)c1C#N`
Marked response: -2.65

Exam item: Next entry: `CCOc1ccc(-n2c(SCC(N)=O)nnc2-c2ccco2)cc1`
Marked response: 6.82

Exam item: Okay, and O=C(NCCCc1ccccc1)C1CCC(CNc2c(N3CCCCC3)c(=O)c2=O)CC1 (centres undefined) ?
Marked response: 3.15

Exam item: # iterate: `O=C(Nc1cccc(C(=O)N2CCCC2)c1)c1ccccc1`
Marked response: -13

Exam item: And `CCc1cc(=O)oc2cc(OCC(=O)N3CCCc4ccccc43)ccc12` ?
Marked response: -13.1

Exam item: Same question, CC(C)c1ccc(C2C(C#N)=C(N)Oc3c2oc(CO)cc3=O)cc1 (centres undefined) this time
Marked response: 3.37

Exam item: Cool, now `Cc1ccc(-c2cn3cc(C)ccc3n2)cc1`
Marked response: 86.5

Exam item: Now give it for `COc1ccc(C2=NS(=O)(=O)N(C)C(C(=O)N3CCCCC3)=C2)cc1` too.
Marked response: -5.66

Exam item: Try CCC(C)(C(=O)NC1CCCC1)N(C(=O)CNC(C)=O)c1ccc(C)cc1 (centres undefined) next.
Marked response: -2.07

Exam item: Then `CSCCNCc1cn(-c2ccc(F)cc2F)nc1-c1ccccc1C` ?
Marked response: 8.28

Exam item: Next: `N#Cc1ccc(OCc2nnc(-c3ccc([N+](=O)[O-])cc3)o2)cc1`
Marked response: -0.787

Exam item: Quick one: `CCn1c(NC(=O)c2nn(C)cc2Br)nc2ccccc21`
Marked response: -3.05

Exam item: Now consider CC(=O)c1sc(NC(=O)CCN2C(=O)C3CC=CCC3C2=O)nc1-c1ccccc1 (centres undefined) and answer again.
Marked response: 0.528

Exam item: Again, but for CC(NCc1ccccc1OC1CCCC1)c1ccccc1 (centres undefined)
Marked response: 8.44

Exam item: Entry `COC(=O)c1ccc(NCC(=O)c2ccccc2)cc1` please
Marked response: 86.1

Exam item: Next compound: Cc1c(Cl)c([N+](=O)[O-])nn1CCCC(=O)NC(C)c1ccccc1 (centres undefined)
Marked response: -0.959

Exam item: Next: `COC(=O)c1ccc(NCC(=O)N2CCCCCC2)cc1`
Marked response: -4.94

Exam item: Another compound: `CCCCC(=O)Nc1c2c(nn1-c1ccc([N+](=O)[O-])cc1)CS(=O)(=O)C2`
Marked response: -1.87

Exam item: Moving on to the next compound: `O=C(Nc1ccncc1)c1cc2ccccc2o1`
Marked response: 60.6

Exam item: Same question for `Cc1nn(C)cc1C(=O)c1ccccc1` please.
Marked response: 7.95

Exam item: Record: `Cc1ccc(C(=O)N/C(=C/c2cccnc2)C(=O)O)cc1`
Marked response: -9.12

Exam item: Now consider `O=C(Nc1ccccc1)c1nnsc1S(=O)(=O)c1ccc(Cl)cc1` and answer again.
Marked response: 7.61

Exam item: Queued: `C=C(Br)Cn1c(CCCC)nc2ccccc21`
Marked response: 2.52

Exam item: Another: `Cc1ccc(-n2c(-c3ccc(Cl)cc3)n[nH]c2=S)cc1`
Marked response: -0.859

Exam item: Next entry: `CCOC(=O)CSc1nnc(-c2cccc(Br)c2)o1`
Marked response: -6.07

Exam item: Try CC(C)CCN1NC2(CCC(C)CC2)NC1=S (centres undefined) next.
Marked response: -7.22

Exam item: Similarly, `COC(=O)CN1C(=O)[C@H]2[C@@H](/C=C/c3ccccc3)N3C(=O)CN(CC4CC4)C(=O)[C@@]3(Cc3ccccc3)[C@H]2C1=O` ?
Marked response: -16.2
